# Assay method text: Mouse Pharmacokinetic Study (Example 1C)
# Format: in vivo
# Measurement conditions: mouse; CD-1 mice, iv, 3 mg/kg; plasma
Readout name: AUC(0-t) (ng·h/mL)
Report the value in ng·h/mL with no unit label.

For the compound CC(C)c1cnn2c(N[C@H]3CCc4[nH]ccc4C3)nc(-c3cncc(F)c3)nc12 [I-137a] , what AUC(0-t) is on record?
1920

Fill blank: measured AUC(0-t) of the compound "CN(C)c1cnn2c(NCCc3c[nH]c4ccccc34)cc(-c3cncc(F)c3)nc12" is ____.
555

I would be grateful if you could share the reported AUC(0-t) for CC(C)c1cnn2c(N[C@@H]3CCc4[nH]ccc4C3)nc(-c3cncc(F)c3)nc12 [I-137b] .
1220

The values you see were collected from patent US11358969B2.
